biological target: human TLR7 (Homo sapiens, UniProt Q9NYK1); construct: HA; host or cells: 293XL-hTLR7-HA (HEK293); test: HEK-TLR7 NF-κB-luciferase reporter, R848 stimulation; assay type: cell-based; conditions: HEK-TLR7; 100 nM ASO; percentage of R848 without ASO (Alharbi et al., 2020)
Sequence (Q9NYK1 27-1049): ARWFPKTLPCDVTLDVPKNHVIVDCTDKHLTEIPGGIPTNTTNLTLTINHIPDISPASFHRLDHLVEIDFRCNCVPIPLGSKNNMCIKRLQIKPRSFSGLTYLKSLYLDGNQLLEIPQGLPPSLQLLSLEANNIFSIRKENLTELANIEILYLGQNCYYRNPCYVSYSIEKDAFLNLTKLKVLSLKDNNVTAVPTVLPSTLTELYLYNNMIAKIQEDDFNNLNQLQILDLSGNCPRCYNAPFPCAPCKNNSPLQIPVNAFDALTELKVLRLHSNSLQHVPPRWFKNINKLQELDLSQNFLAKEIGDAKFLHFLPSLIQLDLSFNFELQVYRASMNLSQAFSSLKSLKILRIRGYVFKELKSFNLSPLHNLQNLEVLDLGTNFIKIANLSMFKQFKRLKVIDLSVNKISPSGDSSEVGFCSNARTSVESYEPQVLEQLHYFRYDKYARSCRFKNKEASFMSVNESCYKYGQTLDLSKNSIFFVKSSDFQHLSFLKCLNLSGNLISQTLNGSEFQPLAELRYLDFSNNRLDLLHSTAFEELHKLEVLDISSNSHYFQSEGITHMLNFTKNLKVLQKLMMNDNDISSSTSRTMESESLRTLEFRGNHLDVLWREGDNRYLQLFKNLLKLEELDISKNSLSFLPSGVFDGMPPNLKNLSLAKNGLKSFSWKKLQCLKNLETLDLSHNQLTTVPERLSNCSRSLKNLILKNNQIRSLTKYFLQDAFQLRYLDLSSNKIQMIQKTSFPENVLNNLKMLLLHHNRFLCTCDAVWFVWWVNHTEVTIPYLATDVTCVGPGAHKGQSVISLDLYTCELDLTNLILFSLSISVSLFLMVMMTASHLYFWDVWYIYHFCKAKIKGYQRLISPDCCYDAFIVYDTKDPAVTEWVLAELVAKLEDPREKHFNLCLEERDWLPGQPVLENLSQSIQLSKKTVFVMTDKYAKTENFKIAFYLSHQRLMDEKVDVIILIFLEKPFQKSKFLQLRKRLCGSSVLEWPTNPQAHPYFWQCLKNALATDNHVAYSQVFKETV
In the oligonucleotide strings, read from the 5' end, every base follows the letter of its sugar. An asterisk marks phosphorothioate; unmarked linkages are phosphodiester. Other units and linkages are bracketed, terminal groups are in braces. A string of capitals states the bases alone. d = 2'-deoxy (DNA); m = 2'-O-methyl
Kind request: treat 40% as inclusive, so TLR7-100 nM: averaged NF-κB-Luciferase relative to R848 at 40% or higher is yes, anything lower is no.

# example entries with known answers
- mG*mG*mU*mC*mU*C*C*T*C*C*A*C*A*C*C*mC*mU*mU*mC*mU (mG*mG*mU*mC*mU*dC*dC*dT*dC*dC*dA*dC*dA*dC*dC*mC*mU*mU*mC*mU; antisense) [[LINC-PINT]127]: no
- mA*mA*mA*mU*mG*T*C*C*T*G*G*C*C*C*T*mC*mA*mC*mU*mG (mA*mA*mA*mU*mG*dT*dC*dC*dT*dG*dG*dC*dC*dC*dT*mC*mA*mC*mU*mG) [[LINC-PINT]148.1]: yes
- mG*mG*mG*mU*mC*T*C*C*T*C*C*A*C*A*C*mC*mC*mU*mU*mC (GGGUCTCCTCCACACCCUUC; antisense; sugars from the 5' end m5 d10 m5, all phosphorothioate, methylation of C not given here) [[LINC-PINT]128]: no

Quick check: does mU*mU*mA*mG*mC*T*C*C*T*T*G*C*C*T*C*mG*mU*mU*mC*mC (mU*mU*mA*mG*mC*dT*dC*dC*dT*dT*dG*dC*dC*dT*dC*mG*mU*mU*mC*mC; antisense) [[LINC-PINT] 1222] have TLR7-100 nM: averaged NF-κB-Luciferase relative to R848 greater than or equal to 40%?
no

Please tell me: is the substance mC*mC*mA*mU*mC*C*C*T*T*C*T*G*C*T*G*mC*mC*mA*mA*mG (mC*mC*mA*mU*mC*dC*dC*dT*dT*dC*dT*dG*dC*dT*dG*mC*mC*mA*mA*mG; antisense) [ILING-PINT199] at or over 40% in terms of TLR7-100 nM: averaged NF-κB-Luciferase relative to R848?
yes

Could you tell me if the measured TLR7-100 nM: averaged NF-κB-Luciferase relative to R848 of mU*mU*mU*mG*mA*A*A*T*T*C*A*G*A*A*G*mA*mU*mU*mU*mG (mU*mU*mU*mG*mA*dA*dA*dT*dT*dC*dA*dG*dA*dA*dG*mA*mU*mU*mU*mG) [[LINC PINT|2690] reaches 40% or more?
no

Could you please find out whether mA*mG*mU*mC*mU*C*C*A*T*G*T*C*C*C*A*mG*mG*mC*mC*mU (mA*mG*mU*mC*mU*dC*dC*dA*dT*dG*dT*dC*dC*dC*dA*mG*mG*mC*mC*mU; antisense) [[CDKN2B-AS1]2232] has TLR7-100 nM: averaged NF-κB-Luciferase relative to R848 that meets 40% or exceeds it?
no

Does TLR7-100 nM: averaged NF-κB-Luciferase relative to R848 meet or surpass 40% for mA*mG*mU*mG*mG*C*A*C*A*T*A*C*C*A*C*mA*mC*mC*mC*mU (AGUGGCACATACCACACCCU; antisense; sugars from the 5' end m5 d10 m5, all phosphorothioate, methylation of C not given here) [[CDKN2B-AS1]495] ?
yes

Given the entry mA*mA*mG*mG*mU*G*G*C*C*A*C*A*G*G*C*mA*mA*mC*mG*mU (mA*mA*mG*mG*mU*dG*dG*dC*dC*dA*dC*dA*dG*dG*dC*mA*mA*mC*mG*mU; antisense) [[CDKN2B-AS1]2198] , answer whether its TLR7-100 nM: averaged NF-κB-Luciferase relative to R848 meets or surpasses 40%.
yes

----------
molecular target: human TLR7 (Homo sapiens, UniProt Q9NYK1); construct: HA; host or cells: 293XL-hTLR7-HA (HEK293); experiment: HEK-TLR7 NF-κB-luciferase reporter, R848 stimulation; format: cell-based; details: MOE-modified ASO at 100 nM; averaged NF-κB-Luciferase relative to R848 condition
Provide the reported TLR7 100 nM of each item.
One number for each entry.

Please review the following examples before continuing.
* AGATCTGGCAGCCCATCAAC (antisense; 2'-MOE modified, pattern not given here) [CTNN2B-2516 MOE] | 0.500
* GTCCTTGCACGTGGCTTCGT (antisense; 2'-MOE modified, pattern not given here) [EGFR-1013 MOE] | 0.216
* ACAGTGTTGAGATACTCGGG (antisense; 2'-MOE modified, pattern not given here) [EGFR-3652 MOE] | 0.420
* TGTCCTTGCACGTGGCTTCG (antisense; 2'-MOE modified, pattern not given here) [EGFR-1014 MOE] | 0.029
* GTCTTGGCTTCGTGGAGCAG (antisense; 2'-MOE modified, pattern not given here) [MB21D1-520 MOE] | 0.372
* ATGTCCCCTGTTGACTGGTC (antisense; 2'-MOE modified, pattern not given here) [HPRT-489 MOE] | 0.426

Provide TLR7 100 nM values for the following items, in order.
1. TTGCACACTTCGTACCCAAA (antisense; 2'-MOE modified, pattern not given here) [CAMSAP1-4915 MOE]
2. TTGCCATGCTGGCTCGGACT (antisense; 2'-MOE modified, pattern not given here) [CAMSAP1-2584 MOE]
3. CAACACTTCGTGGGGTCCTT (antisense; 2'-MOE modified, pattern not given here) [HPRT-665 MOE]
4. GTGTCCTTGCACGTGGCTTC (antisense; 2'-MOE modified, pattern not given here) [EGFR-1015 MOE]

1: 0.418; 2: 0.445; 3: 0.487; 4: 0.377

----------
biological target: TLR8 (Homo sapiens, UniProt Q9NR97); experiment: HEK-TLR8 NF-κB-luciferase reporter, R848 or Motolimod stimulation (potentiation or inhibition); type: cell-based; design: expressed in transfected cells; host or cells: 293XLhTLR8 (HEK293); conditions: MOE-modified ASO at 500 nM; averaged NF-κB-Luciferase relative to R848 condition (fold increase)
Sequence (Q9NR97 27-1041): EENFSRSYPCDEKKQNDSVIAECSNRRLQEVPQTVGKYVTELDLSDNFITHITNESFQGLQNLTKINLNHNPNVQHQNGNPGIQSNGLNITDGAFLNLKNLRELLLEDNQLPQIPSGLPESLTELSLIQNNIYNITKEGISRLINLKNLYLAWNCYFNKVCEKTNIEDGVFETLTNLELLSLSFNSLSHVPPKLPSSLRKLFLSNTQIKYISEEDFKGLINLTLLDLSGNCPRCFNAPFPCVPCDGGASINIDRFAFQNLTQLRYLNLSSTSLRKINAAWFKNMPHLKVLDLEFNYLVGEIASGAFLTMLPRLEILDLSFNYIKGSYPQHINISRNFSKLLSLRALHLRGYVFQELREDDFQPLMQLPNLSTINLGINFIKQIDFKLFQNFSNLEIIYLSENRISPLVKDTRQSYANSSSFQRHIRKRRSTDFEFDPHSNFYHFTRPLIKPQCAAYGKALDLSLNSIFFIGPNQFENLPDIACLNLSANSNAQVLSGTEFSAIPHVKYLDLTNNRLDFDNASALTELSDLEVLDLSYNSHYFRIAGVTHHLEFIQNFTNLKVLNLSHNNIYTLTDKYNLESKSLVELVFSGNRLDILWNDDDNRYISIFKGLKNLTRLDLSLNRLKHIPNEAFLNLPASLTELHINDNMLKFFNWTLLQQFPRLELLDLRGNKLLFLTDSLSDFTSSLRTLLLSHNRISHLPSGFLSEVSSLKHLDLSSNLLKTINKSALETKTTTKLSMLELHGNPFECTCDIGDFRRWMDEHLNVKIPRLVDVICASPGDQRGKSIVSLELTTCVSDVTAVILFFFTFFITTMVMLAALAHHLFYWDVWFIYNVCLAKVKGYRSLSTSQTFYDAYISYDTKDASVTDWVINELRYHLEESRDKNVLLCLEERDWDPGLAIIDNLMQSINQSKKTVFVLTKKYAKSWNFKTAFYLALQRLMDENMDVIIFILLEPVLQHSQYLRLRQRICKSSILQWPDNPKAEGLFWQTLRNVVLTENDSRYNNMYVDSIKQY
Answer each item with its documented TLR8 500 nM.
Answers are plain numbers.

• AGTCGTAGTTGCTTCCTAAC (antisense; 2'-MOE modified, pattern not given here) [MB21D1-1181 MOE] = 5.889
• GGAGCTTCGAGGCCCCAGGC (MOE modified, pattern not given here) [MB21D1-616 MOE] = 0.380
• TCCAACACTTCGTGGGGTCC (antisense; 2'-MOE modified, pattern not given here) [HPRT-667 MOE] = 1.432
• CAAGGCCCTTCGCACTTCTT (antisense; 2'-MOE modified, pattern not given here) [EGFR-1225 MOE] = 1.236
• GGAGATTTCAGAGCAGCTTC (antisense; 2'-MOE modified, pattern not given here) [EGFR-4885 MOE] = 4.308
• GCCCATCCATGAGGTCCTGG (antisense; 2'-MOE modified, pattern not given here) [CTNN2B-2545 MOE] = 0.541

Could you now consider this next sequence?
Consider the sequence TGTCCTTGCACGTGGCTTCG (antisense; 2'-MOE modified, pattern not given here) [EGFR-1014 MOE] . State its measured TLR8 500 nM.
1.433

----------
target: human TLR9 (Homo sapiens, UniProt Q9NR96); construct: HA; host or cells: 293XL-hTLR9-HA (HEK293); assay: HEK-TLR9 NF-κB-luciferase reporter, ODN2006 stimulation; type: cell-based; conditions: ASO 100 nM; relative to ODN2006 only, given as fraction
readout-name: TLR9 100 nM (averaged NF-κB-Luciferase level relative to ODN2006 condition)
Give bare numbers.

Below, 3 sequences whose answers are already recorded.
- GCCATCCACTTGATAG (antisense; LNA-modified, pattern not given here) [EGFR-2874 LNA V1]: 0.772
- GGTTACGGCTCAGTAT (antisense; LNA-modified, pattern not given here) [CAMSAP1-4295 LNA KL]: 0.943
- TGACAAAGATTCACTG (antisense; LNA-modified, pattern not given here) [HPRT LNA-1353 KL]: 0.819

Check the records and state TLR9 100 nM (averaged NF-κB-Luciferase level relative to ODN2006 condition) for GTCTTGGCTTCGTGGA (antisense; LNA-modified, pattern not given here) [MB21D1-522 LNA V1]
0.745

----------
Target: human TLR9 (Homo sapiens)
Construct: HA; host or cells: 293XL-hTLR9-HA (HEK293)
Sequence (Q9NR96 26-1032): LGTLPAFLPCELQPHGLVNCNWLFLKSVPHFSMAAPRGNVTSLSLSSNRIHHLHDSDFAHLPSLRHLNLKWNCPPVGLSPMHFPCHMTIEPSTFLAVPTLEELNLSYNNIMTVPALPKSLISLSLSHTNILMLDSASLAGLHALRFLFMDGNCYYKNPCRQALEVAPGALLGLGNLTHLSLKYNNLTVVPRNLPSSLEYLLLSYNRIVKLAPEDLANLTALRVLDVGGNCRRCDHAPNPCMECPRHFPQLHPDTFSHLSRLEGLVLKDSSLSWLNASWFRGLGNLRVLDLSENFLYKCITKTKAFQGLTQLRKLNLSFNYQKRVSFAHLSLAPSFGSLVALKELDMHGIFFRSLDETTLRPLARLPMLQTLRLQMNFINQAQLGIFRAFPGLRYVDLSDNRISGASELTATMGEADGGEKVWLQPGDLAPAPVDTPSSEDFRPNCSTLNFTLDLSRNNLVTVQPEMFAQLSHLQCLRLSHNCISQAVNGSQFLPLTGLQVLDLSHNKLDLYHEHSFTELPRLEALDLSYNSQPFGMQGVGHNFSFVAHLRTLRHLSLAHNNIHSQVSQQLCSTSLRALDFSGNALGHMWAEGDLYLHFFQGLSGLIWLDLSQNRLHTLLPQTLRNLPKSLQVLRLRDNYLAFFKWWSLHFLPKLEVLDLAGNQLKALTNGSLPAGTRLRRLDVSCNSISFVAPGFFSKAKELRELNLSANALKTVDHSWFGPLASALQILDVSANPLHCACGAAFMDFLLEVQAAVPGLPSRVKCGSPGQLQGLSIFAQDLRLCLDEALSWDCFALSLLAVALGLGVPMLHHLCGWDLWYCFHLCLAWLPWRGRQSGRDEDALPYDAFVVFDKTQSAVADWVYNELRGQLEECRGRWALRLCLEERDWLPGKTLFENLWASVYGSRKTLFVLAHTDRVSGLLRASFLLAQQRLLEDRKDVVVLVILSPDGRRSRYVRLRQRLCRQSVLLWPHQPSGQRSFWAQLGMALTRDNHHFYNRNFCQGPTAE
Assay: HEK-TLR9 NF-κB-luciferase reporter, ODN2006 stimulation
Type: cell-based
Conditions: ASO 100 nM; relative to ODN2006 only, given as fraction
Procedure: In such examples, inhibition of TLR9 activity can be identified by observation of an overall decreased TLR9 response of the cell population, or a lower proportion of cells having TLR9-positive activity as compared to positive control condition in which cells are treated with TLR9 agonist in the absence of the oligonucleotide (or in the presence of an appropriate control inhibitory agent). […] TLR9 activity can then be determined by a luciferase assay. […]
So I've got a bunch of sequences here, and I need their TLR9 100 nM (averaged NF-κB-Luciferase level relative to ODN2006 condition) values.
One number for each entry.

The examples below pair each entry with its known result.
• CCAAGATCAGCAGTCT (antisense; LNA-modified, pattern not given here) [CTNN2B-2341 LNA KL] = 1.424
• CTTGGCTTCGTGGAGC (antisense; LNA-modified, pattern not given here) [MB21D1-520 LNA V1] = 0.596
• ACTTCGTGGGGTCCTT (antisense; LNA-modified, pattern not given here) [HPRT LNA-663 V1] = 0.377
• TCCATACCCAAGGCAT (antisense; LNA-modified, pattern not given here) [CTNN2B-2446 LNA V1] = 1.075
• TCGTAGTTGCTTCCTA (antisense; LNA-modified, pattern not given here) [MB21D1-1181 LNA KL] = 0.987

Each sequence below has a reported value. Please supply its TLR9 100 nM (averaged NF-κB-Luciferase level relative to ODN2006 condition).
1. CTGCAGCTTCCTTGTC (antisense; LNA-modified, pattern not given here) [CTNN2B-2136 LNA V1]
2. TGCTCCTCGGTCTCCC (antisense; LNA-modified, pattern not given here) [CAMSAP1-1850 LNA V1]

1. 0.358
2. 0.548

Please report TLR9 100 nM (averaged NF-κB-Luciferase level relative to ODN2006 condition) for every entry that follows.
1. CACTTCGTGGGGTCCT (antisense; LNA-modified, pattern not given here) [HPRT LNA-664 V1]
2. GCAGGCTCAGTGATGT (antisense; LNA-modified, pattern not given here) [CTNN2B-1642 LNA V1]
3. CGCTTTTCTGTCTGGT (antisense; LNA-modified, pattern not given here) [CTNN2B-311 LNA KL]

0.215
1.036
0.827

Quick request: TLR9 100 nM (averaged NF-κB-Luciferase level relative to ODN2006 condition) for each listed item, please.
1. TGTGATGGCCTCCCAT (antisense; LNA-modified, pattern not given here) [HPRT LNA-334 V1]
2. CCATCCATGAGGTCCT (antisense; LNA-modified, pattern not given here) [CTNN2B-2545 LNA V1]
3. TACTTTCCGAGGTGTC (antisense; LNA-modified, pattern not given here) [CAMSAP1-1739 LNA KL]
4. GTGATCTTGACATGCT (antisense; LNA-modified, pattern not given here) [EGFR-2790 LNA KL]
5. CCTCCCATCTCCTTCA (antisense; LNA-modified, pattern not given here) [HPRT LNA-326 V1]
6. TCCAACACTTCGTGGG (antisense; LNA-modified, pattern not given here) [HPRT LNA-669 V1]
7. GTCCTTGCACGTGGCT (antisense; LNA-modified, pattern not given here) [EGFR-1015 LNA V1]
8. CCACTTGGCAGACCAT (antisense; LNA-modified, pattern not given here) [CTNN2B-1575 LNA V1]

1: 0.818; 2: 1.383; 3: 0.915; 4: 1.001; 5: 1.010; 6: 0.623; 7: 1.310; 8: 1.112

Quick request: TLR9 100 nM (averaged NF-κB-Luciferase level relative to ODN2006 condition) for each listed item, please.
1. AATCCAACAAAGTCTG (antisense; LNA-modified, pattern not given here) [HPRT LNA-692 KL]
2. CTTCGTGGGGTCCTTT (antisense; LNA-modified, pattern not given here) [HPRT LNA-662 V1]

1.050
0.557
